- Test system: Staphylococcus aureus
- Experiment Notes: Antibacterial activity against methicillin-resistant Staphylococcus aureus ATCC 33592 by broth dilution method
- Assay type: functional
Listing of recorded MIC by entry.

Reference set, count: 5
>>> result("O=C(O)c1c(O)cccc1CCc1ccc(O)cc1")
"50 µg/mL"
>>> result("O=C(O)c1c(O)cccc1CCc1ccc(O)cc1O")
"> 200 µg/mL"
>>> result("CCCCCC/C=C/CCCCCCCc1cccc(O)c1C(=O)O")
"6.25 µg/mL"
>>> result("CCCCC(C)Cc1cccc(O)c1C(=O)O (configuration not stated)")
"50 µg/mL"
>>> result("O=C(O)c1c(O)cccc1CC1CCCCCCC1")
"12.5 µg/mL"

Prompt: Recorded MIC of `C=CC/C=C\C/C=C\CCCCCCCc1cccc(OC(C)=O)c1C(=O)O` , please.
Completion: > 800 µg/mL

Prompt: Returns the measured MIC for the input compound. Input: `O=C(O)c1c(O)cccc1CCCCc1ccccc1`
Completion: 25 µg/mL
